Compiled Ki measurements on Beta-secretase 2 (Homo sapiens) taken from the literature.
// note: answer is a bare numeric in nM

Example entries and their recorded answers appear below.
| molecule | Ki, nM |
| --- | --- |
| Cc1cc(C#N)cnc1C(=O)Nc1ccc2c(c1)[C@]1(COC2)CS(=O)(=O)C(C)(C)C(=N)N1 | 8 |
| C[C@@]1(c2sc(-c3cc(F)cc(-c4nnco4)c3)cc2Cl)Cc2ncncc2C(=N)N1 | 21.6 |
| COc1cnc2c(Nc3ccc4c(c3)[C@@]3(C)NC(=N)N(C)S(=O)(=O)[C@H]3CCO4)nccc2n1 | 135 |

Quick check: Ki on Beta-secretase 2 (Homo sapiens), item CN1C(=N)N[C@](C)(c2sc(-c3nnc(-c4ccon4)o3)cc2Cl)CS1(=O)=O ?
156

Quick check: Ki on Beta-secretase 2 (Homo sapiens), item CN1C(=N)N[C@](C)(c2sc(-c3nnc(-c4ccc(C(F)(F)F)cn4)o3)cc2Cl)CS1(=O)=O ?
303

Quick check: Ki on Beta-secretase 2 (Homo sapiens), item CN=[S@]1(=O)C[C@@](C)(c2cc(Nc3nccc4cc(Br)cnc34)ccc2F)NC(=N)C1(C)C ?
2

Quick check: Ki on Beta-secretase 2 (Homo sapiens), item CN1C(=N)N[C@](C)(c2sc(-c3[nH]cnc3-c3ccccc3)cc2Cl)CS1(=O)=O ?
3120

Quick check: Ki on Beta-secretase 2 (Homo sapiens), item C[C@H]1C[C@H]2C(=O)N(C)C(=N)N[C@@]2(c2cc(Oc3ccc(F)cn3)ccc2F)CO1 ?
71.3

Quick check: Ki on Beta-secretase 2 (Homo sapiens), item C[C@@]1(c2cc(NC(=O)c3ccc(F)cn3)ccc2F)Cc2ncncc2C(=N)N1 ?
3

Quick check: Ki on Beta-secretase 2 (Homo sapiens), item CCS(=O)(=O)C1(C)CCC(CF)(c2cc(NC(=O)c3cc4c(cn3)OC(F)(F)O4)cc(F)c2F)N=C1N (stereo not shown) ?
104

Quick check: Ki on Beta-secretase 2 (Homo sapiens), item CN1C(=N)N[C@]2(C)c3cc(NC(=O)c4ccc(C#N)cn4)ccc3OCC[C@H]2S1(=O)=O ?
303

Quick check: Ki on Beta-secretase 2 (Homo sapiens), item [2H]C1([2H])Oc2cnc(C(=O)Nc3cc(F)c(F)c(C4(CF)CCC(C)(S(C)(=O)=O)C(N)=N4)c3)cc2OC1([2H])[2H] (stereo not shown) ?
434

Quick check: Ki on Beta-secretase 2 (Homo sapiens), item C[C@H]1C[C@@H]2[C@](c3cc(Oc4cc(F)cnc4F)ccc3F)(CO1)NC(=N)N(C)S2(=O)=O ?
15

Quick check: Ki on Beta-secretase 2 (Homo sapiens), item CN1C(=N)N[C@](C)(c2sc(-c3nnc(-c4ccc(-c5noc(C(F)(F)F)n5)cc4)o3)cc2Cl)CS1(=O)=O ?
1280
